Source: ChEMBL document CHEMBL1201862

I'd appreciate it if you could supply IC50 values for the items below.
Biological target: Sentrin-specific protease 6 (Homo sapiens, UniProt Q9GZR1);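 also: Luminescence-based dose-response confirmatory assay of SENP6 inhibition, following up an ultra-high-throughput screen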
Sequence (Q9GZR1 whole entry): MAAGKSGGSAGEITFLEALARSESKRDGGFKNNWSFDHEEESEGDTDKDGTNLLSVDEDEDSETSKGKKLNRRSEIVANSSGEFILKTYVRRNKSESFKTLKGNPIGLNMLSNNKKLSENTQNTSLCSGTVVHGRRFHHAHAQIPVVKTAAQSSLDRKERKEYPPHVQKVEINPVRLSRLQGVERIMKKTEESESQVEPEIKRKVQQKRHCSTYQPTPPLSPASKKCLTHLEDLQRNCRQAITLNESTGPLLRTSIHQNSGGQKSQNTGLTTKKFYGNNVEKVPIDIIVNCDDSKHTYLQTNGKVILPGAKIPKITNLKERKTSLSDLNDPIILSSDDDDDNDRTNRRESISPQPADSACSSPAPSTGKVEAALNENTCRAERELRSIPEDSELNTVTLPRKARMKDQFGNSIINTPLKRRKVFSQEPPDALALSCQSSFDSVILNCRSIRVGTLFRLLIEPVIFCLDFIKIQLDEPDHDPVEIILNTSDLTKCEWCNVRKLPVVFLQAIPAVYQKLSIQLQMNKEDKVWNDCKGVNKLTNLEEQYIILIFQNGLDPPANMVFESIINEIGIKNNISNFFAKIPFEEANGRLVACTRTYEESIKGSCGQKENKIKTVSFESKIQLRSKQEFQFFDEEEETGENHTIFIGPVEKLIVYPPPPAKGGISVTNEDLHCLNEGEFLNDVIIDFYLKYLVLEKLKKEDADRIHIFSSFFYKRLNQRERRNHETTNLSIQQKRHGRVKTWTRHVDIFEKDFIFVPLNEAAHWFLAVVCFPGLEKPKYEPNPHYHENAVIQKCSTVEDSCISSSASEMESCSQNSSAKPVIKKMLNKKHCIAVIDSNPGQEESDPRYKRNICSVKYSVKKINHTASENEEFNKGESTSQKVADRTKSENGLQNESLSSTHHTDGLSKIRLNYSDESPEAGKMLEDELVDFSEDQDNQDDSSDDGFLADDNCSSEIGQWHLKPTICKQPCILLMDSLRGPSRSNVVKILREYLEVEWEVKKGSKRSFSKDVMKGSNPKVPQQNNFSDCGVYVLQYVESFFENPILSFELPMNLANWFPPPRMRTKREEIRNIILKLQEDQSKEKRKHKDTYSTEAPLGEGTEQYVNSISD
Format: functional
The source made the active and inactive calls.

Example compounds with recorded IC50:
- compound: "Cc1cc(-n2c(C)cc(C(=O)COc3ccc(F)c(F)c3)c2C)no1"
  data-value: "22.7 µM (active)"
- compound: "Fc1ccc(NC(=S)N2N=CCC2c2ccccc2)cc1 (stereo not given)"
  data-value: "39.3 µM (active)"
- compound: "CC(=O)N(/N=C1\\Sc2ccccc2C1=O)c1cccc(C)c1"
  data-value: "6.06 µM (active)"

List IC50 for every entry below, keeping the order given.
1. Clc1ccc(-c2cc3ccccc3[nH]2)cc1
2. C/C(=N/OC(=O)c1ccccc1Br)c1ccc(C)cc1

stdout:
1: 18 µM (active); 2: 28.1 µM (active)
